The reported numbers originate from ChEMBL document CHEMBL2311407.

test: AUC in Beagle dog at 10 mg/kg, po administered as spray dried dispersion
Type: ADME, organism-based, Canis lupus familiaris
Parameters: dose 10 mg/kg, route oral
conditions used: plasma
reported metric: AUC (ng·h/mL)
Give bare numbers, in ng·h/mL.

Prompt line: Look up AUC: Cc1c(Oc2ccc(-n3cnnn3)cc2F)ncnc1N1C2CC3CC1CC(C2)N3C(=O)OC1(C)CC1
Response line: 41000

====

test: Oral bioavailability in Sprague-Dawley rat at 3 mg/kg administered in 0.5% methylcellulose
Type: ADME, organism-based
conditions used: in vivo
reported metric: bioavailability
Write the numeric value and follow it with the unit.

Prompt line: Look up bioavailability: Cc1c(Oc2ccc(-n3cnnn3)cc2F)ncnc1N1C2CC3CC1CC(C2)N3C(=O)OC1(C)CC1
Response line: 7.6%

====

test: Cmax in Beagle dog at 3 mg/kg, po administered as spray dried dispersion
Assay type: ADME, organism-based, Canis lupus familiaris
Set-up: dose 3 mg/kg, route oral
conditions used: in vivo
reported metric: Cmax (µg/mL)
Numbers only, in µg/mL.

Prompt line: Look up Cmax: Cc1c(Oc2ccc(-n3cnnn3)cc2F)ncnc1N1C2CC3CC1CC(C2)N3C(=O)OC1(C)CC1
Response line: 0.812

====

test: Tmax in Beagle dog at 100 mg/kg, po administered as spray dried dispersion
Format: ADME, organism-based, Canis lupus familiaris
Design: dose 100 mg/kg, route oral
conditions used: in vivo
reported metric: Tmax

Prompt line: Look up Tmax: Cc1c(Oc2ccc(-n3cnnn3)cc2F)ncnc1N1C2CC3CC1CC(C2)N3C(=O)OC1(C)CC1
Response line: 1.5 h

====

test: Tmax in Beagle dog at 3 mg/kg, po administered as spray dried dispersion
Type: ADME, organism-based, Canis lupus familiaris
Parameters: dose 3 mg/kg, route oral
conditions used: in vivo
reported metric: Tmax (h)
Numbers only, in h.

Prompt line: Look up Tmax: Cc1c(Oc2ccc(-n3cnnn3)cc2F)ncnc1N1C2CC3CC1CC(C2)N3C(=O)OC1(C)CC1
Response line: 1

====

test: Volume of distribution at steady state in Sprague-Dawley rat at 1 mg/kg, iv
Format: ADME, organism-based
Parameters: dose 1 mg/kg, route intravenous
conditions used: in vivo, read-out: Vdss
reported metric: Vd (L/kg)
One number for each entry, in L/kg.

Prompt line: Look up Vd: Cc1c(Oc2ccc(-n3cnnn3)cc2F)ncnc1N1C2CC3CC1CC(C2)N3C(=O)OC1(C)CC1
Response line: 3.96

====

test: AUC in Beagle dog at 1 mg/kg, iv
Type: ADME, organism-based, Canis lupus familiaris
Parameters: dose 1 mg/kg, route intravenous
conditions used: plasma
reported metric: AUC (ng·h/mL)
One number for each entry, in ng·h/mL.

Prompt line: Look up AUC: Cc1c(Oc2ccc(-n3cnnn3)cc2F)ncnc1N1C2CC3CC1CC(C2)N3C(=O)OC1(C)CC1
Response line: 4730
